- measurementTarget: spike protein of SARS-CoV-2 clinical isolate USA/WA/1/2020 (live virus) (SARS-CoV-2, UniProt P0DTC2 14-1273)
- experiment: cell-based or functional assay
Live Virus Neutralization IC50 values for the binders below.
The answer is to be given in µg/mL; state only the numeric part.

anti-SARS-CoV-2 antibody 989 (antibody, V domains shown) VH: QVQLQESGPGLVKPSQTLSLTCTVSGGSISSGSYYWSWIRQPAGKGLEWIGRIYTSGSTNYNPSLKSRVTMSVDTSKNHFSLKLRSVTAADTAVYYCARGIAVAGDDDYYYYYGLDVWGQGTTVTVSS VL: SYELTQPPSVSVSPGQTARITCSGDALPKQYAYWYQQKPGQAPVMVINKDSERPSGIPERFSGSSSGTTVTLTISGVQAEDEADYYCHSADSSGTYWVFGGGTKLTVL ... 1.5

Ask: What measured Live Virus Neutralization IC50 goes with anti-SARS-CoV-2 antibody 1012 (antibody, V domains shown) VH: EVQVVESGGGLVQPGGSRRLSCTASGFTLRNYWMSWVRQAPGKGLEWVANIKQDGSEKYYVDSVKGRFTISRDNAKNSLYLQMDSLRAEDTAVYYCARGGRYCPGGSCPRWGRGTLVTVSS VL: DIQMTQSPSSLSASVGDRVTITCQASQDISNFLNWYQLKPGEAPTLLIFDASKLETGVPSRFSGTGFGTDFTFTISSLQPEDTATYYCQQYDDLTSITLGQGTRLEIK ?
Result: 0.028
